Experiment: Rat pharmacokinetics
Settings: male, Sprague Dawley, rat, in vivo, po, 30 mg/kg
assay_metric: concentration at 24 h (ng/mL)

> print(dat)
                                   compound  numeric.readout
1  CNC(=O)c1ccc(N2C(=S)N(c3ccc(C#N)c(C(F)(F)F)c3)C(=O)[C@]23CCOC3)cc1F [ONC1-13B]              159

----------
Test: Brain and prostate distribution after single IV in rats
Conditions: rat, in vivo, 2 mg/kg, Prostate, 30 min, single IV 2 mg/kg
assay_metric: concentration at 30 min (ng/g)

> print(dat)
                                   compound  numeric.readout
1  CNC(=O)c1ccc(N2C(=S)N(c3ccc(C#N)c(C(F)(F)F)c3)C(=O)[C@]23CCOC3)cc1F [ONC1-13B]             1160
2  CNC(=O)c1ccc(N2C(=S)N(c3ccc(C#N)c(C(F)(F)F)c3)C(=O)C2(C)C)cc1F              102

----------
Assay: Rat pharmacokinetics
Conditions: male, Sprague Dawley, rat, in vivo, po, 30 mg/kg
assay_metric: half-life

> print(dat)
                                   compound   result
1  CNC(=O)c1ccc(N2C(=S)N(c3ccc(C#N)c(C(F)(F)F)c3)C(=O)[C@]23CCOC3)cc1F [ONC1-13B]  240 min

----------
Assay: Drug concentration in plasma and xenograft tumor after 21-day dosing
Conditions: male, CB17-SCID, mouse, in vivo, po, 20 mg/kg
assay_metric: Kp at 16 h

> print(dat)
                                   compound  result
1  CNC(=O)c1ccc(N2C(=S)N(c3ccc(C#N)c(C(F)(F)F)c3)C(=O)[C@]23CCOC3)cc1F [ONC1-13B]    0.72

----------
Experiment: Rat pharmacokinetics
Conditions: male, Sprague Dawley, rat, in vivo, po, 30 mg/kg
assay_metric: Cmax (ng/mL)

> print(dat)
                                   compound  assay.metric  numeric.readout
1  CNC(=O)c1ccc(N2C(=S)N(c3ccc(C#N)c(C(F)(F)F)c3)C(=O)[C@]23CCOC3)cc1F [ONC1-13B]          Cmax             7160

----------
Experiment: Drug concentration in plasma and xenograft tumor after 21-day dosing
Conditions: male, CB17-SCID, mouse, in vivo, 50 mg/kg
Kp at 24 h for assorted compounds
assay_metric: Kp at 24 h

> print(dat)
                                   compound  result
1  CNC(=O)c1ccc(N2C(=S)N(c3ccc(C#N)c(C(F)(F)F)c3)C(=O)[C@]23CCOC3)cc1F [ONC1-13B]    0.77
2  CC(O)(CS(=O)(=O)c1ccc(F)cc1)C(=O)Nc1ccc(C#N)c(C(F)(F)F)c1 (centres unmarked) [Bicalutamide, reference compound]     2.5

----------
Assay: Rat pharmacokinetics
Details: male, Sprague Dawley, rat, in vivo, po, 300 mg/kg
assay_metric: half-life (h)

> print(dat)
                                   molecule  assay.metric  unit.label  numeric.readout
1  CNC(=O)c1ccc(N2C(=S)N(c3ccc(C#N)c(C(F)(F)F)c3)C(=O)[C@]23CCOC3)cc1F [ONC1-13B]     half-life           h                6

----------
Experiment: Rat pharmacokinetics
Settings: male, Sprague Dawley, rat, in vivo, po, 5 mg/kg
assay_metric: MRT inf (h)

> print(dat)
                                   molecule  assay.metric  unit.label  numeric.readout
1  CNC(=O)c1ccc(N2C(=S)N(c3ccc(C#N)c(C(F)(F)F)c3)C(=O)[C@]23CCOC3)cc1F [ONC1-13B]       MRT inf           h                7

----------
Assay: Rat pharmacokinetics
Settings: male, Sprague Dawley, rat, in vivo, po, 100 mg/kg
assay_metric: AUC(0-inf) (µg·h/mL)

> print(dat)
                                   compound  numeric.readout
1  CNC(=O)c1ccc(N2C(=S)N(c3ccc(C#N)c(C(F)(F)F)c3)C(=O)[C@]23CCOC3)cc1F [ONC1-13B]              268

----------
Assay: Brain and prostate distribution after single IV in rats
Details: rat, in vivo, 2 mg/kg
Kp at 30 min for assorted molecules
assay_metric: Kp at 30 min

> print(dat)
                                   molecule  assay.metric  numeric.readout
1  CNC(=O)c1ccc(N2C(=S)N(c3ccc(C#N)c(C(F)(F)F)c3)C(=O)C2(C)C)cc1F  Kp at 30 min             0.39
2  CNC(=O)c1ccc(N2C(=S)N(c3ccc(C#N)c(C(F)(F)F)c3)C(=O)[C@]23CCOC3)cc1F [ONC1-13B]  Kp at 30 min             1.55

----------
Experiment: Brain and prostate distribution after single IV in rats
Conditions: rat, in vivo, 1 mg/kg, plasma, 30 min, single IV 1 mg/kg
assay_metric: concentration at 30 min (ng/mL)

> print(dat)
                            smiles.notation  numeric.readout
1  CNC(=O)c1ccc(N2C(=S)N(c3cnc(C#N)c(C(F)(F)F)c3)C(=O)C23CCC3)cc1F              251

----------
Test: Rat pharmacokinetics
Settings: male, Sprague Dawley, rat, in vivo, po, 100 mg/kg
assay_metric: Cmax (ng/mL)

> print(dat)
                                   compound  assay.metric  numeric.readout
1  CNC(=O)c1ccc(N2C(=S)N(c3ccc(C#N)c(C(F)(F)F)c3)C(=O)[C@]23CCOC3)cc1F [ONC1-13B]          Cmax            16400

----------
Assay: Brain and prostate distribution after single IV in rats
Details: rat, in vivo, 2 mg/kg, brain, 30 min, single IV 2 mg/kg
concentration at 30 min for assorted molecules
assay_metric: concentration at 30 min

> print(dat)
                                   molecule    result
1  CNC(=O)c1ccc(N2C(=S)N(c3ccc(C#N)c(C(F)(F)F)c3)C(=O)[C@]23CCOC3)cc1F [ONC1-13B]  145 ng/g
2  CNC(=O)c1ccc(N2C(=S)N(c3ccc(C#N)c(C(F)(F)F)c3)C(=O)C2(C)C)cc1F  164 ng/g

----------
Assay: Rat pharmacokinetics
Settings: male, Sprague Dawley, rat, in vivo, po, 300 mg/kg
assay_metric: MRT inf (h)

> print(dat)
                                   compound  assay.metric  unit.label  numeric.readout
1  CNC(=O)c1ccc(N2C(=S)N(c3ccc(C#N)c(C(F)(F)F)c3)C(=O)[C@]23CCOC3)cc1F [ONC1-13B]       MRT inf           h                7

----------
Assay: Rat pharmacokinetics
Details: male, Sprague Dawley, rat, in vivo, po, 100 mg/kg
assay_metric: Tmax (h)

> print(dat)
                                   molecule  numeric.readout
1  CNC(=O)c1ccc(N2C(=S)N(c3ccc(C#N)c(C(F)(F)F)c3)C(=O)[C@]23CCOC3)cc1F [ONC1-13B]                4

----------
Target: AR-LBD (Homo sapiens, UniProt P10275)
Sequence (P10275 669-900 limits assumed): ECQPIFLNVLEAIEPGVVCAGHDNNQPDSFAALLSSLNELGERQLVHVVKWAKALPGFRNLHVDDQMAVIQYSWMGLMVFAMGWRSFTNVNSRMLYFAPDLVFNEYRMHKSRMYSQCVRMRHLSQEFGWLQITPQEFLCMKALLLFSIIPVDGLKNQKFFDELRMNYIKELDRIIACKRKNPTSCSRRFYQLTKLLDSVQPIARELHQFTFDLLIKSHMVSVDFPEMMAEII
Test: biochemical
assay_metric: IC50

> print(dat)
                                   compound  assay.metric   result
1  CNC(=O)c1ccc(N2C(=S)N(c3ccc(C#N)c(C(F)(F)F)c3)C(=O)[C@]23CCOC3)cc1F [ONC1-13B]          IC50  19.9 µM

----------
Experiment: Rat pharmacokinetics
Settings: male, Sprague Dawley, rat, in vivo, po, 300 mg/kg
assay_metric: AUC(0-inf)

> print(dat)
                                   compound       result
1  CNC(=O)c1ccc(N2C(=S)N(c3ccc(C#N)c(C(F)(F)F)c3)C(=O)[C@]23CCOC3)cc1F [ONC1-13B]  314 µg·h/mL

----------
Assay: Drug concentration in plasma and xenograft tumor after 21-day dosing
Conditions: male, CB17-SCID, mouse, in vivo, 10 mg/kg
assay_metric: Kp at 24 h

> print(dat)
                                   molecule  assay.metric  numeric.readout
1  CNC(=O)c1ccc(N2C(=S)N(c3ccc(C#N)c(C(F)(F)F)c3)C(=O)C2(C)C)cc1F [MDV3100]    Kp at 24 h             0.53
